Experimental system: UniProt:P17706
Sequence (P17706 whole entry): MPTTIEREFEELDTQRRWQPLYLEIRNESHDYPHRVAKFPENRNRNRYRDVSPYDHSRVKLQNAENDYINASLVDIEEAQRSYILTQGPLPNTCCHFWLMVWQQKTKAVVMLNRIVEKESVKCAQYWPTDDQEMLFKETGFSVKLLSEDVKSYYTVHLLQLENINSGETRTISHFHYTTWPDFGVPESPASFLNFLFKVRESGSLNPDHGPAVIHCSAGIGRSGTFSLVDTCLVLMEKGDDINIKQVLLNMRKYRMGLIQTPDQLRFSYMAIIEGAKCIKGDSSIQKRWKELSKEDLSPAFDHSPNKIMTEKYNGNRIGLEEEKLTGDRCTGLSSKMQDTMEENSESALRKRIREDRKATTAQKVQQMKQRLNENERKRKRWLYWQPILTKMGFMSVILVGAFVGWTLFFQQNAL
Assay comment: Inhibition of TCPTP (unknown origin) assessed as reduction in nitrophenol production using pNPP as substrate incubated for 30 mins by EnVisionMultilable plate reader based method
pIC50: −log10 of the molar value.
Readout kind: pIC50

Summary for this compound, `CCOC(=O)C1=C(C(C)C)NC(=S)N[C@H]1/C=C/c1ccc([N+](=O)[O-])cc1` : pIC50 is < 4.00

Summary for this compound, `COC(=O)C1=C(C(C)C)NC(=S)N[C@H]1/C=C/c1ccc(Cl)cc1` : pIC50 is < 4.00

Summary for this compound, `CCOC(=O)C1=C(C(C)C)NC(=S)N[C@H]1/C=C/c1ccc(C)cc1` : pIC50 is < 4.00

Summary for this compound, `COC(=O)C1=C(C(C)(C)C)NC(=S)N[C@H]1/C=C/c1ccc([N+](=O)[O-])cc1` : pIC50 is < 4.00

Summary for this compound, `CCOC(=O)C1=C(C(C)C)NC(=S)N[C@H]1/C=C/c1ccc(Br)cc1` : pIC50 is < 4.00

Summary for this compound, `COC(=O)C1=C(C(C)(C)C)NC(=S)N[C@H]1/C=C/c1ccc(Cl)cc1` : pIC50 is 4.26

Summary for this compound, `COC(=O)C1=C(C(C)(C)C)NC(=S)N[C@H]1/C=C/c1ccc(C(F)(F)F)cc1` : pIC50 is < 4.00

Summary for this compound, `COC(=O)C1=C(C(C)C)NC(=S)N[C@H]1/C=C/c1ccc(F)cc1` : pIC50 is < 4.00

Summary for this compound, `COC(=O)C1=C(C(C)C)NC(=S)N[C@H]1/C=C/c1ccc(Br)cc1` : pIC50 is < 4.00

Summary for this compound, `CCOC(=O)C1=C(C(C)C)NC(=S)N[C@H]1/C=C/c1ccc(C(F)(F)F)cc1` : pIC50 is < 4.00

---

Experimental system: Tyrosine-protein phosphatase non-receptor type 1 (Homo sapiens, UniProt P18031)
Sequence (P18031 whole entry): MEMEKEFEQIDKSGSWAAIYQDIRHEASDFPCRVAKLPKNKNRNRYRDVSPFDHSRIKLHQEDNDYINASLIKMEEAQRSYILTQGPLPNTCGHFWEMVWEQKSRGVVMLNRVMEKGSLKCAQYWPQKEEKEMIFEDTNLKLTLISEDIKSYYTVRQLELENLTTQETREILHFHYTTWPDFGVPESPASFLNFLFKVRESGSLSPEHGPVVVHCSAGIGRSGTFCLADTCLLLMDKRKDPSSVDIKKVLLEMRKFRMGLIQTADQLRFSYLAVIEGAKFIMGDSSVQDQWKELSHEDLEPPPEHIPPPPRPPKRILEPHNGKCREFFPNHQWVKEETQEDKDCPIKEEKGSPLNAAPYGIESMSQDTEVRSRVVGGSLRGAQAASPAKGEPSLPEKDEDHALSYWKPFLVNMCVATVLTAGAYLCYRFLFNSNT
Assay comment: Inhibition of PTP1B (unknown origin) assessed as reduction in nitrophenol production using pNPP as substrate incubated for 30 mins by EnVisionMultilable plate reader based method
Would you mind telling me the reported IC50 of each entry?

Summary for this compound, `CCOC(=O)C1=C(C(C)C)NC(=S)N[C@H]1/C=C/c1ccc([N+](=O)[O-])cc1` : IC50 is > 50 µM

Summary for this compound, `COC(=O)C1=C(C(C)(C)C)NC(=S)N[C@H]1/C=C/c1ccc(F)cc1` : IC50 is > 50 µM

Summary for this compound, `CCOC(=O)C1=C(C(C)C)NC(=S)N[C@H]1/C=C/c1ccc(F)cc1` : IC50 is > 50 µM

Summary for this compound, `COC(=O)C1=C(C(C)C)NC(=S)N[C@H]1/C=C/c1ccc([N+](=O)[O-])cc1` : IC50 is > 50 µM

Summary for this compound, `COC(=O)C1=C(C(C)(C)C)NC(=S)N[C@H]1/C=C/c1ccccc1` : IC50 is > 50 µM

Summary for this compound, `CCOC(=O)C1=C(C(C)C)NC(=S)N[C@H]1/C=C/c1ccccc1` : IC50 is > 50 µM
